SYSTEM: RORγ ligand binding domain (LBD) (Homo sapiens, UniProt P51449)
Construct: made in house; host or cells: E. coli BL-21 (BL3), vector pDEST15
Sequence (P51449 269-508 limits assumed): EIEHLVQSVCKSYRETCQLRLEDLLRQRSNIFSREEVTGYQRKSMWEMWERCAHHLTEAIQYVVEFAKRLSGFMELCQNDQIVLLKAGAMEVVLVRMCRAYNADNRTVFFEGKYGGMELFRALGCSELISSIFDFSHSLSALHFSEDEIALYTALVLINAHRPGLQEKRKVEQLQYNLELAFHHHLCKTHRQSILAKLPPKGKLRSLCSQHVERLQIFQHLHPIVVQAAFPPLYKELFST
MEASUREMENT_NOTES: TR-FRET Activity Assay (ligand sensing, RORγ-LBD / coactivator peptide interaction, LANCE)
Format: biochemical
COND: first value of the cell FRET/FF/REN; TR-FRET activity assay; read-out: pIC50 (FRET) (converted)
PARAMETER_MEASURED: IC50 (nM)
Answer with a number only, understood to be in nM.

Incoming: Dear colleague, please send me the reported IC50 for Cc1c(C(=O)NCC(C)(C)c2noc(=O)[nH]2)cc(-c2cc(C(C)(C)O)cc(C3(C)CC3)c2)n1CC1CCCCC1 when you can.
Outgoing: 1000

Incoming: Quick one: give measured IC50 for Cc1c(C(=O)NCCC(=O)O)cc(-c2cc(C(C)(C)C)c3c(c2)C2(CCO3)CC2)n1CC1CCCCC1
Outgoing: 2000

Incoming: State its IC50 for this molecule: Cc1c(C(=O)NCC2(O)CCOCC2)cc(-c2ccc(S(=O)(=O)NC(C)(C)C)c3ccccc23)n1CC1CCC1
Outgoing: 631

Incoming: Hello, please tell me recorded IC50 for this one: Cc1c(C(N)=O)cc(-c2cc(C(C)(C)C)cc(C3(C)CC3)c2)n1CC1CCCCC1
Outgoing: 251

Incoming: Assign IC50 to the following record: Cc1c(C(=O)NC2COC2)cc(-c2cc(OCC(C)(C)C)nc(C(F)(F)F)c2)n1CC1CCCCC1
Outgoing: 6310

Incoming: Output measured IC50 for this item: Cc1c(C(=O)NC2CCOCC2)cc(-c2ccc(S(=O)(=O)N[C@H](C)C(F)(F)F)c(C(F)(F)F)c2)n1CC1CCCCC1
Outgoing: 398

Incoming: Tell us which IC50 value is on record for Cc1c(-c2cc(C(=O)NCC(C)(C)O)c(C)n2CC2CCCCC2)nc(C2(C)CC2)nc1C(C)(C)C
Outgoing: 794

Incoming: Tell me IC50 reported for Cc1c(C(=O)NC2CCOCC2)cc(-c2ccc(S(=O)(=O)NC(=O)C(C)(C)C)c(C(F)(F)F)c2)n1CC1CCCCC1
Outgoing: 7940

Incoming: For the molecule CCNC(=O)NC(C)(C)CNC(=O)c1cc(-c2cc(C(C)(C)C)c3c(c2)C2(CCO3)CC2)n(CC2CCCCC2)c1C , report IC50.
Outgoing: 2510

Incoming: State its IC50 for this molecule: Cc1c(C(=O)N2CCCC(C)(C(=O)O)C2)cc(-c2ccc(S(=O)(=O)NC(C)(C)C)c(C(F)(F)F)c2)n1CC1CCCCC1 (stereo not shown)
Outgoing: 794

Incoming: Let me know recorded IC50 for Cc1c(C(=O)N[C@H]2C[C@H](C(=O)O)C2)cc(-c2cc(Cl)cc(C(=O)NC(C)(C)C)c2)n1CC1CCCCC1 , thanks.
Outgoing: 2510

Incoming: Report measured IC50; entry is Cc1c(C(=O)N2CC(N3CCOCC3)C2)cc(-c2cc(C(C)(C)C)cc(C3(C)CC3)c2)n1CC1CCCCC1
Outgoing: 631

Incoming: Check the records and state IC50 for Cc1c(C(=O)N[C@H]2C[C@H](C(=O)O)C2)cc(-c2cc(C(F)(F)F)cc(C3(C)CC3)c2)n1CC1CCCCC1
Outgoing: 794

Incoming: Indicate its recorded IC50; the molecule in question is COC(C)(C)c1cc(-c2c(Cl)c(C(=O)N[C@H]3C[C@H](C(=O)O)C3)c(C)n2CC2CCCCC2)cc(C2(C)CC2)c1
Outgoing: 2510

Incoming: Identify measured IC50 associated with COC(=O)[C@H]1C[C@H](NC(=O)c2cc(-c3cc(C(C)(C)C)cc(C4(C)CC4)c3)n(CC3CCCCC3)c2C)C1
Outgoing: 316

Incoming: Check the records and state IC50 for Cc1c(C(=O)N[C@H]2C[C@H](C(=O)O)C2)cc(-c2ccc(S(=O)(=O)NC(C)(C)C)c3sccc23)n1CC1CCCCC1
Outgoing: 794

Incoming: Give the reported value of IC50 for this record: Cc1c(C(=O)NCCS(C)(=O)=O)cc(-c2cc(C(C)(C)C)cc(C(C)(C)C)c2)n1CC1CCCCC1
Outgoing: 251

Incoming: Identify IC50 associated with the molecule Cc1c(C(=O)NC2CCOCC2)cc(-c2ccc(S(=O)(=O)NC(C)(C)C)c(OC(F)F)c2)n1CC1CCCCC1
Outgoing: 501

Incoming: Determine from records and report IC50 for Cc1c(C(=O)N[C@H]2CC[C@H](C(=O)O)CC2)cc(-c2ccc(S(=O)(=O)NC(C)(C)C)c(C(F)(F)F)c2)n1CC1CCCCC1
Outgoing: 398

Incoming: Give IC50 for COCc1c(C(=O)NCC(C)(C)O)cc(-c2ccc(S(=O)(=O)NC(C)(C)C)c(C(C)(C)C)c2)n1CC1CCCCC1
Outgoing: 794

Incoming: Supply measured IC50 of Cc1c(C(=O)NCC(C)(C)CC(N)=O)cc(-c2cc(C(C)(C)C)c3c(c2)C2(CCO3)CC2)n1CC1CCCCC1 in your reply.
Outgoing: 398

Incoming: Given Cc1c(C(=O)NC2CCOCC2)cc(-c2cc(C(=O)NC(C)(C)C)cc(C3(C)CC3)c2)n1CC1CCCCC1 , respond with its IC50.
Outgoing: 1000

Incoming: Give IC50 for Cc1c(C(=O)N[C@H]2C[C@H](C(=O)O)C2)cc(-c2ccc(S(=O)(=O)NC(C)(C)C)c(C(F)(F)F)c2)n1CC1CCCCC1
Outgoing: 316

Incoming: # return recorded IC50 for input Cc1c(C(=O)NCC(C)(C)NS(C)(=O)=O)cc(-c2cc(C(C)(C)C)c3c(c2)C2(CCO3)CC2)n1CC1CCCCC1
Outgoing: 398

Incoming: Name the recorded IC50 of the molecule listed here: Cc1c(C(=O)NC2CCOCC2)cc(-c2ccc(CC(=O)NC(C)(C)C)c(C(F)(F)F)c2)n1CC1CCCCC1
Outgoing: 501

Incoming: Identify measured IC50 associated with Cc1c(C(=O)N[C@H]2CCOC2)cc(-c2cc(C(C)(C)C)c3c(c2)C2(CCO3)CC2)n1CC1CCCCC1
Outgoing: 158

Incoming: Fill in reported IC50 for this entry: Cc1c(C(=O)N[C@H]2C[C@H](C(=O)O)C2)cc(-c2cc(C3(C)CC3)nc(C(C)(C)C)n2)n1CC1CCCCC1
Outgoing: 794

Incoming: State its IC50: Cc1c(C(=O)N2CC3(COCC(=O)N3)C2)cc(-c2ccc(S(=O)(=O)NC(C)(C)C)c(C(F)(F)F)c2)n1CC1CCCCC1
Outgoing: 1260
